Data origin: patent US20200347130A1

Each record here notes measured Kd.
# SYSTEM: T1, CD96 extracellular region with His tag (CD96-His) (human, UniProt P40200 22-519)
# T1 construct: also called CD96-ECD-His; Bio-CD96-His (biotin-labelled form)
# T1 sequence: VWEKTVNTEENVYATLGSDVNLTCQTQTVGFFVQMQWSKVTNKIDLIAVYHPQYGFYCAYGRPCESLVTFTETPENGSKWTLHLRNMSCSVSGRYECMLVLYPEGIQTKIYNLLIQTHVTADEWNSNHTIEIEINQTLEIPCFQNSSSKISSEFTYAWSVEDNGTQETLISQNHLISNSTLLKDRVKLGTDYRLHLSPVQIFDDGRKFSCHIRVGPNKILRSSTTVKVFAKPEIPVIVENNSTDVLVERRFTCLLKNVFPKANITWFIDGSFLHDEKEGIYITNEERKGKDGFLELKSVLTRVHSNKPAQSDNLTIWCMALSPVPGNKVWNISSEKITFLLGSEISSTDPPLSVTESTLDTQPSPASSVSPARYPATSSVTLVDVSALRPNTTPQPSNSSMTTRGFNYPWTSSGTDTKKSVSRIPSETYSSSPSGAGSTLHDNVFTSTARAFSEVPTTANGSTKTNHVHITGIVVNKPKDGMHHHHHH
# EXPERIMENTAL_DETAILS: SPR (Biacore), antibody captured, CD96-ECD-His as mobile phase
MEASURED_QUANTITY: Kd (nM)

BINDER | MEASURED_QUANTITY | UNIT_STRING | READOUT_VALUE
h1722-009 (antibody, V domains shown, Only variable regions are tied to this name) VH: EVQLVQSGAEVKKPGSSVKVSCKASGGTFSDYWMHWVRQAPGQGLEWMGMLHPNSGTTSFNEKFKIRVTITADKSTSTAYMELSSLRSEDTAVYYCARDYSGPFAYWGQGTLVTVSS VL: DIQLTQSPSSLSASVGDRVTITCSASSSVNYIHWYQQKPGKAPKRWIFDTSKLASGVPSRFSGSGSGTDYTLTISSLQPEDFATYYCQQWRSNPLTFGQGTKLEIK | Kd | nM | 4.55
h1718-020 (antibody, V domains shown, Only variable regions are tied to this name) VH: EVQLVQSGAEVKKPGASVKVSCKASGYTITDYNMNWVKQAPGQRLEWIGVINPSYGITDYNQNFKDKVTITVDTSASTAYMELSSLRSEDTAVYYCAIQLRLPGYFDVWGQGTTVTVSS VL: DIQMTQSPSSLSASVGDRVTITCKASQDINLYLNWFQQKPGKAPKTLIYRANRLVDGVPSRFSGSGSGQDYTLTISSLQPEDFATYYCLKYDEFPYTFGGGTKVEIK | Kd | nM | 3.41
